Biological target: T1, human CD3 on human T cells (Jurkat) (human, UniProt P07766 23-207; P04234 22-171; P09693 23-182)
T1 construct: whole, on cells; also called huCD3+; cell surface CD3 on human (Jurkat) T cells
T1 sequence (P07766 23-207, chain 1 of 3): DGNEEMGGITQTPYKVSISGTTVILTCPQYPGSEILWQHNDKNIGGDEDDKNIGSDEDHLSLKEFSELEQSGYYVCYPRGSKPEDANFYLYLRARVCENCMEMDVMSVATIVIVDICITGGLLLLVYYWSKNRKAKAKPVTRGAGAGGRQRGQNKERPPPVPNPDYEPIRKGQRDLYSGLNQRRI
T1 sequence (P04234 22-171, chain 2 of 3): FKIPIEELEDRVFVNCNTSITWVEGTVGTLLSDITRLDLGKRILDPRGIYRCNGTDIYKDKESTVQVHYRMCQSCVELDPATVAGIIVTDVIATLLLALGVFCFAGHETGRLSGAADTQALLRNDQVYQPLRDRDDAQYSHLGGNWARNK
T1 sequence (P09693 23-182, chain 3 of 3): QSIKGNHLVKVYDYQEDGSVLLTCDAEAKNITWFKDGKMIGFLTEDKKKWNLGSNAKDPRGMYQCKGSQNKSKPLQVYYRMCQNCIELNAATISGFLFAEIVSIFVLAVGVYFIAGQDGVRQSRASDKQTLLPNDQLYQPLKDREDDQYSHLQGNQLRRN
Test: flow cytometry, Jurkat cells, 1.6 nM antibody
Protocol: To express humanized Fabs in mammalian cells, VH genes (VH1 and VH2) and VL genes (VL1~VL10) shown in FIG. 2 were individually cloned into the pFUSE vector under the IL2 signal peptide sequence. […] Binding affinity of humanized candidates for human and cynomolgus T cells were evaluated by flow cytometry. […] After several washes, samples were acquired on a BD LSR II or BD Accuri C6 and analyzed using FlowJo 7.6.2 software.
readout-type: MFI

Here is how some binders turned out for MFI.
INSERT INTO assay_data (binder, result) VALUES
  ('HuL3H2 (Fab, V domains shown, Humanized Fab expressed in Expi293F; also called VL3 + VH2 humanized Fab) VH: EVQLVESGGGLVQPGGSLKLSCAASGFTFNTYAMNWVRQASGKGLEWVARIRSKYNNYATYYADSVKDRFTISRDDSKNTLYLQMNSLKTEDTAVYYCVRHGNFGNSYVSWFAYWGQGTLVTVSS VL: QAVVTQEPSLTVSPGGTVTLTCGSSTGAVTTSNYANWVQQKPGQAFRGLIGGTNKRAPWTPARFSGSLLGGKAALTISGAQPEDEAEYYCALWYSNLWVFGGGTKLTVL', 610),
  ('HuL4H2 (Fab, V domains shown, Humanized Fab expressed in Expi293F; also called VL4 + VH2 humanized Fab) VH: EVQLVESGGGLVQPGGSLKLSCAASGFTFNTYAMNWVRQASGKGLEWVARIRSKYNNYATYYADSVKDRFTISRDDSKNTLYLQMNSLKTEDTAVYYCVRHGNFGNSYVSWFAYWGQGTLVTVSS VL: QAVVTQEPSLTVSPGGTVTLTCGSSTGAVTTSNYANWVQQKPGQAFRGLIYGTNKRAPWTPARFSGSLLGDKAALTISGAQPEDEAEYYCALWYSNLWVFGGGTKLTVL', 615),
  ('HuL1H1 (Fab, V domains shown, Detected with anti-human kappa; also called VL1 + VH1 humanized Fab) VH: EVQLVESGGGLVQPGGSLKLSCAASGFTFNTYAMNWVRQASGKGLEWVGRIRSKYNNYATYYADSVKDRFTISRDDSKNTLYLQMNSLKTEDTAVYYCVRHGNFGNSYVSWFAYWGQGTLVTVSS VL: QAVVTQEPSLTVSPGGTVTLTCGSSTGAVTTSNYANWFQQKPGQAPRTLIYGTNKRAPWTPARFSGSLLGGKAALTISGAQPEDEAEYYCALWYSNLWVFGGGTKLTVL', 1440),
  ('huL5H2 (heavy chain SEQ ID NO: 41 and light chain SEQ ID NO: 39) (Fab, V domains shown, also called VL5 kappa + H2 Fab) VH: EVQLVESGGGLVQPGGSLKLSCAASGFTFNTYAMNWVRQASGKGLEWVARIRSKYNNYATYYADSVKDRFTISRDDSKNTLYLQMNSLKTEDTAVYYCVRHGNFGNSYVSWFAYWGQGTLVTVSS VL: QAVVTQEPSLTVSPGGTVTLTCRSSTGAVTTSNYANWVQQKPDHLFRGLIGGTNKRAPGTPARFSGSLLGDKAALTISGAQPEDEAEYYCALWYSNLWVFGGGTKLTVLK', 13400),
  ('HuL8H2 (Fab, V domains shown, Humanized Fab expressed in Expi293F; also called VL8 + VH2 humanized Fab) VH: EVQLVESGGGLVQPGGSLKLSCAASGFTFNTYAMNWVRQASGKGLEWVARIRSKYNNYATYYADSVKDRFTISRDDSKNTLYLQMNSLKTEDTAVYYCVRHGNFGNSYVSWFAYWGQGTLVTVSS VL: QAVVTQEPSLTVSPGGTVTLTCGSSTGAVTTSNYANWVQQKPDHLFRGLIGGTNKRAPGTPARFSGSLLGGKAALTISGAQPEDEAEYYCALWYSNLWVFGGGTKLTVL', 2120),
  ('HuL9H2 (Fab, V domains shown, Humanized Fab expressed in Expi293F; also called VL9 + VH2 humanized Fab) VH: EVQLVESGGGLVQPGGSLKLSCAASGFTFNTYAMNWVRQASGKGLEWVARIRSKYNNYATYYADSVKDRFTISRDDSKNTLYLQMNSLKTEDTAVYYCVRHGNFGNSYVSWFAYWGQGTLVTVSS VL: QAVVTQEPSLTVSPGGTVTLTCGSSTGAVTTSNYANWVQQKPGQAFRGLIGGTNKRAPGVPDRFSGSLLGGKAALTISGAQPEDEAEYYCALWYSNLWVFGGGTKLTVL', 986),
  ('HuL6H2 (Fab, V domains shown, Humanized Fab expressed in Expi293F; also called VL6 + VH2 humanized Fab) VH: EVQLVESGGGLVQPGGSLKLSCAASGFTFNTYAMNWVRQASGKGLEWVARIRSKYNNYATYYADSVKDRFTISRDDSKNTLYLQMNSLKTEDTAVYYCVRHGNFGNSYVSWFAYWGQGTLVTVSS VL: QAVVTQEPSLTVSPGGTVTLTCRSSTGAVTTSNYANWFQQKPDHLPRTLIYGTNKRAPGTPARFSGSLLGDKAALTISGAQPEDEAEYYCALWYSNLWVFGGGTKLTVL', 597),
  ('HuL7H2 (Fab, V domains shown, Humanized Fab expressed in Expi293F; also called VL7 + VH2 humanized Fab) VH: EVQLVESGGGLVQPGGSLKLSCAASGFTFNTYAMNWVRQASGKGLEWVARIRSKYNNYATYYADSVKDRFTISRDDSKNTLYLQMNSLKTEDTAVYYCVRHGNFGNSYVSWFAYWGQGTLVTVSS VL: QAVVTQEPSLTVSPGGTVTLTCRSSTGAVTTSNYANWVQQKPGQAFRGLIGGTNKRAPGTPARFSGSLLGDKAALTISGAQPEDEAEYYCALWYSNLWVFGGGTKLTVL', 2040),
  ('Murine anti-CD3 (antibody, V domains shown, also called murine anti-CD3 VL/VH) VH: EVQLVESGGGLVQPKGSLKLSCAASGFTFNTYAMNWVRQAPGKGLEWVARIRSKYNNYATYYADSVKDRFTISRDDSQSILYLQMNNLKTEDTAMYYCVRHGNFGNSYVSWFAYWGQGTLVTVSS VL: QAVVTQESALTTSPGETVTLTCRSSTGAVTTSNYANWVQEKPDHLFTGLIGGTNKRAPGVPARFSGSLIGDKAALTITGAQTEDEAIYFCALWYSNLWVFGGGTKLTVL', 10500),
  ('HuL2H2 (Fab, V domains shown, Humanized Fab expressed in Expi293F; also called VL2 + VH2 humanized Fab) VH: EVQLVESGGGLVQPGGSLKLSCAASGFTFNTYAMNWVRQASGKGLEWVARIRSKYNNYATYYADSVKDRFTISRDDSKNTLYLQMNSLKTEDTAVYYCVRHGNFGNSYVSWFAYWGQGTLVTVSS VL: QAVVTQEPSLTVSPGGTVTLTCGSSTGAVTTSNYANWVQQKPGQAFRGLIYGTNKRAPWTPARFSGSLLGGKAALTISGAQPEDEAEYYCALWYSNLWVFGGGTKLTVL', 1440);

Problem: I would be grateful if you could share the reported MFI for HuL10H2 (Fab, V domains shown, Humanized Fab expressed in Expi293F; also called VL10 + VH2 humanized Fab) VH: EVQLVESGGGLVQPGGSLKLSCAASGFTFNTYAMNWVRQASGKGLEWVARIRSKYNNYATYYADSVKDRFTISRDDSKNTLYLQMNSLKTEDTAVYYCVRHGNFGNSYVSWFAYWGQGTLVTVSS VL: QAVVTQEPSLTTSPGGTVTLTCRSSTGAVTTSNYANWVQQKPDHLFTGLIGGTNKRAPGVPARFSGSLIGDKAALTISGAQPEDEAEYYCALWYSNLWVFGGGTKLTVL .
Result: 1610
